Measured values drawn from patent US11384078B2 for this set.

System: L. donovani HU3 strain in mouse peritoneal macrophages
Assay: Assay for inhibition of parasitemia of Leishmania donovani in mouse macrophages (SYBR Green nuclei count, high-content imaging)
Type: cell-based
Settings: Leishmania donovani, Peritoneal macrophage, L. donovani in mouse peritoneal macrophages; read-out: L. donovani in Mouse Macrophages EC50
experimental_endpoint: log10(EC50) (log10 of the value in nM)
Kindly note that the scale is log10 and the underlying EC50 is in nM.

Q) Endpoint output: log10(EC50) of CC(C)Nc1cnc2nn(-c3cc(NC(=O)N4CC(F)C4)ccc3F)cc2c1 . Value?
A) 0.85

Q) Requested read-out: log10(EC50). Entry: O=C(Nc1ccc(F)c(-n2cc3cc(C4CC4)cnc3n2)c1)N1CCC1
A) 0.93

Q) Name the reported log10(EC50) value associated with the compound O=C(Nc1ccnc(-n2cc3cc(-c4ccccn4)cnc3n2)c1)N1CC(F)(F)C1
A) 1.41

Q) Look up log10(EC50) for this compound: O=C(Nc1ccc(F)c(-n2cc3cc(N4C5CCC4COC5)cnc3n2)c1)N1CC(F)C1
A) 1.00

Q) # lookup: log10(EC50) of O=C(Nc1ccc(F)c(-n2cc3cc(N4CCOCC4)cnc3n2)c1)N1CCC1
A) 0.78

Q) Tell me the measured log10(EC50) of Cc1cn(-c2cnc3nn(-c4cc(NC(=O)N5CC(F)C5)ccc4F)cc3c2)cn1 , please.
A) 2.20

Q) log10(EC50) for CC(C)c1cnc2nn(-c3cc(NC(=O)N4CC[C@@H](F)C4)ccc3F)cc2c1 ?
A) 0.81

Q) # get_value(readout='log10(EC50)', item= O=C(Nc1ccnc(-n2cc3cc(N4CC5(CC5)C4)cnc3n2)c1)N1CCC1 )
A) 1.85

###

Test system: Trypanosoma cruzi amastigotes cultured in 3T3 fibroblast cells
Assay: Assay for growth inhibition of kinetoplastid parasite Trypanosoma cruzi (beta-galactosidase Tulahuen strain, CPRG readout)
Assay type: cell-based
Details: Trypanosoma cruzi, Fibroblast, T. cruzi amastigotes in 3T3 fibroblast cells; read-out: Buckner infectious T. cruzi EC50
experimental_endpoint: EC50 (nM)
Just the number please, in nM, no unit attached.

{"columns": ["molecule", "EC50 (nM)"],
 "data": [
  ["CC(C)c1cnc2nn(-c3cc(NC(=O)CCCC(F)(F)F)ccc3F)cc2c1", 1420]
]}

Q) Recorded EC50 of Cc1ccc(C(=O)Nc2ccc(F)c(-n3cc4cc(C(C)C)cnc4n3)c2)o1 , please.
A) 15

Q) Recorded EC50 for O=C(Nc1ccc(F)c(-n2cc3cc(N4CCC5(CC5)C4)cnc3n2)c1)N1CC(F)C1 , please?
A) 3

###

Recorded EC50 by entry
Test system: Leishmania donovani axenic amastigote
Test: In vitro assay for growth inhibition of Leishmania donovani axenic amastigote (Cell TiterGlo luminescence)
Assay type: cell-based
Details: L. donovani axenic amastigotes in vitro; read-out: L. donovani amastigotes EC50
Entry rule: numbers only, all in µM.

Q) Please tell me: EC50 of Cc1nc(C)c(C(=O)Nc2ccc(F)c(-n3cc4cc(N5CC(C(F)(F)F)C5)cnc4n3)c2)o1 [Compound 279] , system Leishmania donovani axenic amastigote?
A) 0.01

Q) For the record O=C(Nc1ccc(F)c(-n2cc3cc(-c4ccccn4)cnc3n2)c1)[C@H]1C[C@@H]1F (single isomer, unassigned) [Compound 273] , what value of EC50 is listed for Leishmania donovani axenic amastigote?
A) 0.027

Q) Recall the recorded EC50 for O=C(Nc1ccc(F)c(-n2cc3cc(N4CC(F)(F)C4)cnc3n2)c1)[C@@H]1C[C@H]1F (single isomer, unassigned) [Compound 271] with Leishmania donovani axenic amastigote and state it.
A) 0.12

###

System: L. donovani HU3 strain in mouse peritoneal macrophages
Test: Assay for inhibition of parasitemia of Leishmania donovani in mouse macrophages (SYBR Green nuclei count, high-content imaging)
Format: cell-based
Conditions: Leishmania donovani, Peritoneal macrophage, L. donovani in mouse peritoneal macrophages; read-out: L. donovani in Mouse Macrophages EC50
experimental_endpoint: pEC50
Scale: negative log10 of molar concentration, which is what pEC50 denotes.

Take a look at these entries with their results.
{"columns": ["chemical_smiles", "tested_system", "pEC50"],
 "data": [
  ["Cc1nc(C)c(C(=O)Nc2ccc(F)c(-n3cc4cc(N(C)C)cnc4n3)c2)o1", "L. donovani HU3 strain in mouse peritoneal macrophages", 7.11],
  ["CC(C)c1cnc2nn(-c3cc(NC(=O)c4cnccn4)ccc3F)cc2c1", "L. donovani HU3 strain in mouse peritoneal macrophages", 7.15],
  ["Cc1nc(C(F)(F)F)oc1C(=O)Nc1ccc(F)c(-n2cc3cc(C(C)C)cnc3n2)c1", "L. donovani HU3 strain in mouse peritoneal macrophages", 6.06],
  ["O=C(Nc1ccc(F)c(-n2cc3cc(N4CC5(CSC5)C4)cnc3n2)c1)N1CC(F)C1", "L. donovani HU3 strain in mouse peritoneal macrophages", 8.05],
  ["Cc1cnc(C(=O)Nc2ccc(F)c(-n3cc4cc(C(C)C)cnc4n3)c2)cn1", "L. donovani HU3 strain in mouse peritoneal macrophages", 5.92]
]}

Q) Fill in the blank: the reported pEC50 of N#CC1(C(=O)Nc2ccc(F)c(-n3cc4cc(-c5ccccn5)cnc4n3)c2)CC1 is ____.
A) 6.02

Q) Consider the compound shown here: CC(C)(C)Cc1cnc2nn(-c3cc(NC(=O)N4CCC4)ccc3F)cc2c1 What is its recorded pEC50?
A) 8.09

Q) Requested field: pEC50. Item: Cc1ncoc1C(=O)Nc1ccc(F)c(-n2cc3cc(C(C)C)cnc3n2)c1
A) 6.66

###

Test system: Trypanosoma cruzi amastigotes cultured in 3T3 fibroblast cells
Experiment: Assay for growth inhibition of kinetoplastid parasite Trypanosoma cruzi (beta-galactosidase Tulahuen strain, CPRG readout)
Format: cell-based
Details: Trypanosoma cruzi, Fibroblast, T. cruzi amastigotes in 3T3 fibroblast cells; read-out: Buckner infectious T. cruzi EC50
Text: Assay for Growth Inhibition of Kinetoplastid Parasite Trypanosoma cruzi Compounds of the invention can be assayed for inhibitor activity against Trypanosoma cruzi amastigotes cultured in 3T3 fibroblast cells. The assay is done using the mammalian stage (amastigotes) of T. cruzi that replicates in the intracellular space of host cells. […] This allows for a colorimetric readout by using the substrate CPRG and an absorbance plate reader. […]
Binarize EC50 at 5 nM; below is MET, at or above is NOT MET.

{"columns": ["compound", "tested_system", "category"],
 "data": [
  ["Cc1cccnc1-c1cnc2nn(-c3cc(NC(=O)N4CC(F)(F)C4)ccc3F)cc2c1", "Trypanosoma cruzi amastigotes cultured in 3T3 fibroblast cells", "NOT MET"],
  ["CC(C)c1cnc2nn(-c3cc(NC(=O)C4CCC4)ccc3F)cc2c1", "Trypanosoma cruzi amastigotes cultured in 3T3 fibroblast cells", "NOT MET"],
  ["O=C(Nc1ccc(F)c(-n2cc3cc(C4CCCCC4)cnc3n2)c1)N1CC(F)C1", "Trypanosoma cruzi amastigotes cultured in 3T3 fibroblast cells", "NOT MET"],
  ["O=C(Nc1cccc(-n2cc3cc(-c4ccccn4)cnc3n2)c1)N1CCC1", "Trypanosoma cruzi amastigotes cultured in 3T3 fibroblast cells", "MET"],
  ["O=C(Nc1ccc(F)c(-n2cc3cc(N4CCN(CC(F)(F)F)CC4)cnc3n2)c1)N1CC[C@@H](F)C1", "Trypanosoma cruzi amastigotes cultured in 3T3 fibroblast cells", "MET"]
]}

Q) Below 5 nM on EC50? Entry CN(C)c1cnc2nn(-c3cc(NC(=O)N4CC[C@@H](F)C4)ccc3F)cc2c1
A) NOT MET

Q) Find out if reported EC50 for O=C(Nc1ccc(F)c(-n2cc3cc(-c4ccccn4)cnc3n2)c1)c1ccc(F)o1 is less than 5 nM
A) MET

Q) For this compound, is EC50 lower than 5 nM? O=C(Nc1ccc(F)c(-n2cc3cc(-c4ccccn4)cnc3n2)c1)[C@H]1C[C@@H]1F (single isomer, unassigned)
A) NOT MET

Q) hey, is EC50 for CC(C)c1cnc2nn(-c3cc(NC(=O)N4CC[C@@H](C)C4)ccc3F)cc2c1 lower than 5 nM or not?
A) MET

Q) Please check: EC50 for Cc1nc(C)c(C(=O)Nc2ccc(F)c(-n3cc4cc(C5CCC5)cnc4n3)c2)o1 , strictly under 5 nM or not?
A) NOT MET

Q) is_below(EC50, 5 nM) for O=C(Nc1ccc(F)c(-n2cc3cc(N4CCOCC4)cnc3n2)c1)N1CC[C@@H](F)C1 ?
A) NOT MET

Q) I wonder whether CC(C)c1cnc2nn(-c3cc(NC(=O)c4ccc(C#N)cn4)ccc3F)cc2c1 has EC50 below 5 nM. Can you tell?
A) NOT MET

Q) Criterion: EC50 strictly below 5 nM. Is it met by CCCC(C)c1cnc2nn(-c3cc(NC(=O)N4CC(F)C4)ccc3F)cc2c1 (stereo not shown) ?
A) NOT MET

Q) Quick check: does O=C(Nc1ccc(F)c(-n2cc3cc(N4CCC45COC5)cnc3n2)c1)N1CC(F)C1 have EC50 under 5 nM?
A) NOT MET

Q) For CC(=O)N1CCC1c1cnc2nn(-c3cc(NC(=O)N4CC(F)C4)ccc3F)cc2c1 (stereo not shown) , is the recorded EC50 below the cut-off of 5 nM?
A) NOT MET
